# target system: T1, soluble human FcRn (shFcRn) (human, UniProt P55899 24-297; P61769 21-119)
# T1 construct: Biotinylated for the ELISA, amine-coupled to a CM5 chip for SPR; also called biotinylated shFcRn
# T1 sequence (P55899 24-297 limits assumed, chain 1 of 2): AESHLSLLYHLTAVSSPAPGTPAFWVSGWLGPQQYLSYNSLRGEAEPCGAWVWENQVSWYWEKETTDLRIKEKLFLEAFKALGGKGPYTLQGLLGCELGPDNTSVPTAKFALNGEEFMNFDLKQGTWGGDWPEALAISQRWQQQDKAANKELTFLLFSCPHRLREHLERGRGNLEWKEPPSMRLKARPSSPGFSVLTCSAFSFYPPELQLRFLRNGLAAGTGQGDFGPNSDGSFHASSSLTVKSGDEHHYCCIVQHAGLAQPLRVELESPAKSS
# T1 sequence (P61769 21-119 limits assumed, chain 2 of 2): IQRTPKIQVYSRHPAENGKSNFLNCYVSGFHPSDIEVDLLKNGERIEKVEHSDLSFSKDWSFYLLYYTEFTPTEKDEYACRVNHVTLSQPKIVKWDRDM
# protocol description: IgG competition ELISA
Bridge positions count the residues as written; N and C are the ends. Square brackets hold non-standard residues; d marks the D form. Ends that are not written are not given here. Phe(4-NH2) = Nc1ccc(C[C@H](N)C(=O)O)cc1; His(Me) = mono-methylated histidine; NMeL = CN[C@@H](CC(C)C)C(=O)O; Pen = CC(C)(S)[C@H](N)C(=O)O; Sar = CNCC(=O)O
parameter: IC50 (µM)
One number for each entry, in µM.

Guide cases for IC50, answers given:
binder="QRFCTGXFGGLYPCNGP (Pen 4; Thz 7; disulfide 4-14; C-terminal amide) [Peptide No. 91]" quantitative_result=44
binder="RF[Pen]TG[His(Me)]FGGLYPC-NH2 (disulfide 3-13) [Peptide No. 259]" quantitative_result=2.9
binder="RFCTGXFGGLYPC (Pen 3; Thz 6; Sar 9; NMeL 10; disulfide 3-13; C-terminal amide) [Peptide No. 248]" quantitative_result=1.6
binder="RF[Pen]TGRFG[Sar][NMeL]YPC-NH2 (disulfide 3-13; N-terminus assumed; SMILES CC(C)C[C@H]1C(=O)N[C@@H](Cc2ccc(O)cc2)C(=O)N2CCC[C@H]2C(=O)N[C@H](C(N)=O)CSSC(C)(C)[C@H](NC(=O)[C@H](Cc2ccccc2)NC(=O)[C@@H](N)CCCNC(=N)N)C(=O)N[C@@H]([C@@H](C)O)C(=O)NCC(=O)N[C@@H](CCCNC(=N)N)C(=O)N[C@@H](Cc2ccccc2)C(=O)NCC(=O)N(C)CC(=O)N1C) [Peptide No. 256]" quantitative_result=5.5

Parameters: items (list). Returns: IC50 for each item.
1. RFCTGXFGGLYPC (Pen 3; ThienylAla 6; Sar 9; NMeL 10; disulfide 3-13; C-terminal amide) [Peptide No. 251]
2. RF[Pen]TG[Phe(4-NH2)]FG[Sar][NMeL]YPC-NH2 (disulfide 3-13; N-terminus assumed; SMILES CC(C)C[C@H]1C(=O)N[C@@H](Cc2ccc(O)cc2)C(=O)N2CCC[C@H]2C(=O)N[C@H](C(N)=O)CSSC(C)(C)[C@H](NC(=O)[C@H](Cc2ccccc2)NC(=O)[C@@H](N)CCCNC(=N)N)C(=O)N[C@@H]([C@@H](C)O)C(=O)NCC(=O)N[C@@H](Cc2ccc(N)cc2)C(=O)N[C@@H](Cc2ccccc2)C(=O)NCC(=O)N(C)CC(=O)N1C) [Peptide No. 258]
3. RFCTGXFGGLYPC (Pen 3; triazolylAla 6 (1,2,3-triazole side chain); Sar 9; NMeL 10; disulfide 3-13; C-terminal amide) [Peptide No. 271]
4. RFCTGXFGGLYPC (Pen 3; 4-PiperidylAla 6; Sar 9; NMeLeu 10; disulfide 3-13; C-terminal amide) [Peptide No. 264]

[45, 4.6, 5.7, 85]

Report IC50 for every entry below.
1. RF[Pen]TGKFG[Sar][NMeL]YPC-NH2 (disulfide 3-13; N-terminus assumed; SMILES CC(C)C[C@H]1C(=O)N[C@@H](Cc2ccc(O)cc2)C(=O)N2CCC[C@H]2C(=O)N[C@H](C(N)=O)CSSC(C)(C)[C@H](NC(=O)[C@H](Cc2ccccc2)NC(=O)[C@@H](N)CCCNC(=N)N)C(=O)N[C@@H]([C@@H](C)O)C(=O)NCC(=O)N[C@@H](CCCCN)C(=O)N[C@@H](Cc2ccccc2)C(=O)NCC(=O)N(C)CC(=O)N1C) [Peptide No. 255]
2. QRF[Pen]TGHFGGLYPCNGP-NH2 (disulfide 4-14; N-terminus assumed; SMILES CC(C)C[C@@H]1NC(=O)CNC(=O)CNC(=O)[C@H](Cc2ccccc2)NC(=O)[C@H](Cc2c[nH]cn2)NC(=O)CNC(=O)[C@H]([C@@H](C)O)NC(=O)[C@@H](NC(=O)[C@H](Cc2ccccc2)NC(=O)[C@H](CCCNC(=N)N)NC(=O)[C@@H](N)CCC(N)=O)C(C)(C)SSC[C@@H](C(=O)N[C@@H](CC(N)=O)C(=O)NCC(=O)N2CCC[C@H]2C(N)=O)NC(=O)[C@@H]2CCCN2C(=O)[C@H](Cc2ccc(O)cc2)NC1=O) [Peptide No. 32]
3. RF[Pen]TG[His(Me)2]FGGLYPC-NH2 (disulfide 3-13) [Peptide No. 260]

[40, 2, 4.4]
